Measured Kd, listed per entry for reference.
target: GDP-bound KRAS wild-type protein (Homo sapiens, UniProt P01116); assay: Binding to KRAS by surface plasmon resonance (SPR), Single Cycle Kinetics; conditions: SPR, Single Cycle Kinetics, GDP-bound KRAS wild-type protein; read-out: KRAS KD
Sequence (P01116 whole entry): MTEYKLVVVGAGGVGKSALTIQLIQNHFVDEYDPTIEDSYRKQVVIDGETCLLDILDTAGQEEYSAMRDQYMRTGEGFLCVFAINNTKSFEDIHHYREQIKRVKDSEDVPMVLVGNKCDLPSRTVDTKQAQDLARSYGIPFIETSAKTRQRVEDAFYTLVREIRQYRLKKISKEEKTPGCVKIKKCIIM
ASSAY ENDPOINT: Kd (nM)

[
  {
    "ENTRY SMILES": "CCO[C@@H]1C[C@H]2C(=O)NC3(CCC3)C(=O)N(C)[C@@H](C3CCCC3)C(=O)N(C)[C@H](C(=O)N(C)C)CC(=O)N(C)[C@@H](CC(F)F)C(=O)N[C@@H]([C@@H](C)CC)C(=O)N(C)CC(=O)N(C)[C@H]3C/C=C\\CCN(C3=O)[C@@H](Cc3ccc(C(F)(F)F)cc3)C(=O)N(C)CC(=O)N[C@@H](CCc3cc(F)c(C(F)(F)F)c(F)c3)C(=O)N2C1",
    "RESULT NUMBER": 0.042
  },
  {
    "ENTRY SMILES": "CC[C@H](C)[C@@H]1NC(=O)[C@H](COC)N(C)C(=O)C[C@@H](C(=O)N2CCOCC2)N(C)C(=O)[C@H](C2CCCC2)N(C)C(=O)C2(CCCC2)NC(=O)[C@@H]2C[C@H](O)CN2C(=O)[C@H](CCc2cc(F)c(C(F)(F)F)c(F)c2)NC(=O)CN(C)C(=O)[C@H](Cc2ccc(C(F)(F)F)cc2)N2CCCCC[C@@H](C2=O)N(C)C(=O)CN(C)C1=O",
    "RESULT NUMBER": 0.28
  },
  {
    "ENTRY SMILES": "CCO[C@@H]1C[C@H]2C(=O)NC3(CCC3)C(=O)N(C)[C@@H](C3CCCC3)C(=O)N(C)[C@H](C(=O)N3CCOCC3)CC(=O)N(C)[C@@H](CC)C(=O)N[C@@H]([C@@H](C)CC)C(=O)N(C)CC(=O)N(C)[C@H]3CCCCCN(C3=O)[C@@H](Cc3ccc(F)cc3)C(=O)N(C)CC(=O)N[C@@H](CCc3cc(F)c(C(F)(F)F)c(F)c3)C(=O)N2C1",
    "RESULT NUMBER": 0.13
  },
  {
    "ENTRY SMILES": "CCO[C@@H]1C[C@H]2C(=O)NC3(CC(C)(C)C3)C(=O)N(C)[C@@H](C(CC)CC)C(=O)N(C)[C@H](C(=O)N(C)C)CC(=O)N(C)[C@@H](COC)C(=O)N[C@@H]([C@@H](C)CC)C(=O)N(C)CC(=O)N(C)[C@H]3C/C=C\\CCN(C3=O)[C@@H](Cc3ccc(C(F)(F)F)cc3)C(=O)N(C)CC(=O)N[C@@H](CCc3ccc(C(F)(F)F)c(Cl)c3)C(=O)N2C1",
    "RESULT NUMBER": 0.23
  },
  {
    "ENTRY SMILES": "CCO[C@@H]1C[C@H]2C(=O)NC3(CCC3)C(=O)N(C)[C@@H](C3CCCC3)C(=O)N(C)[C@H](C(=O)N(C)C)CC(=O)N(C)[C@@H](CC(C)C)C(=O)N[C@@H]([C@@H](C)CC)C(=O)N(C)CC(=O)N(C)[C@H]3C/C=C\\CCN(C3=O)[C@@H](Cc3ccc(C(F)(F)F)cc3)C(=O)N(C)CC(=O)N[C@@H](CCc3cc(F)c(C(F)(F)F)c(F)c3)C(=O)N2C1",
    "RESULT NUMBER": 0.038
  },
  {
    "ENTRY SMILES": "CCO[C@@H]1C[C@H]2C(=O)NC3(CC(C)(C)C3)C(=O)N(C)[C@@H](C3CCCC3)C(=O)N(C)[C@H](CC)CC(=O)N(C)[C@@H](CC)C(=O)N[C@@H]([C@@H](C)CC)C(=O)N(C)CC(=O)N(C)[C@H]3C/C=C\\CCN(C3=O)[C@@H](Cc3ccc(C(F)(F)F)cc3)C(=O)N(C)CC(=O)N[C@@H](CCc3cc(F)c(C(F)(F)F)c(F)c3)C(=O)N2C1",
    "RESULT NUMBER": 0.19
  },
  {
    "ENTRY SMILES": "CCCCO[C@@H]1C[C@H]2C(=O)NC3(CCC3)C(=O)N(C)[C@@H](C3CCCC3)C(=O)N(C)[C@H](C(=O)N3CCOCC3)CC(=O)N(C)[C@@H](CC(C)C)C(=O)N[C@@H]([C@@H](C)CC)C(=O)N(C)CC(=O)N(C)[C@H]3CCCCCN(C3=O)[C@@H](Cc3ccc(C(F)(F)F)cc3)C(=O)N(C)CC(=O)N[C@@H](CCc3cc(F)c(C(F)(F)F)c(F)c3)C(=O)N2C1",
    "RESULT NUMBER": 3.7
  },
  {
    "ENTRY SMILES": "CCO[C@@H]1C[C@H]2C(=O)NC3(CC(C)(C)C3)C(=O)N(C)[C@@H](C(CC)CC)C(=O)N(C)[C@H](C(=O)N3CCCC3)CC(=O)N(C)[C@@H](C)C(=O)N[C@@H]([C@@H](C)CC)C(=O)N(C)CC(=O)N(C)[C@H]3C/C=C\\CCN(C3=O)[C@@H](Cc3ccc(C(F)(F)F)cc3)C(=O)N(C)CC(=O)N[C@@H](CCc3ccc(Cl)c(Cl)c3)C(=O)N2C1",
    "RESULT NUMBER": 0.49
  },
  {
    "ENTRY SMILES": "CC[C@H](C)[C@@H]1NC(=O)[C@H](C)N(C)C(=O)C[C@@H](C(=O)N(C)C)N(C)C(=O)[C@H](C2CCCC2)N(C)C(=O)C2(CC(C)(C)C2)NC(=O)[C@@H]2CC(F)(F)CN2C(=O)[C@H](CCc2cc(F)c(C(F)(F)F)c(F)c2)NC(=O)CN(C)C(=O)[C@H](Cc2ccc(C(F)(F)F)cc2)N2CC/C=C\\C[C@@H](C2=O)N(C)C(=O)CN(C)C1=O",
    "RESULT NUMBER": 0.037
  },
  {
    "ENTRY SMILES": "CCCN(C)C(=O)[C@@H]1CC(=O)N(C)[C@@H](CC(F)F)C(=O)N[C@@H]([C@@H](C)CC)C(=O)N(C)CC(=O)N(C)[C@H]2C/C=C\\CCN(C2=O)[C@@H](Cc2ccc(C(F)(F)F)cc2)C(=O)N(C)CC(=O)N[C@@H](CCc2cc(F)c(C(F)(F)F)c(F)c2)C(=O)N2C[C@H](OCC)C[C@H]2C(=O)NC2(CC(F)(F)C2)C(=O)N(C)[C@@H](C2CCCC2)C(=O)N1C",
    "RESULT NUMBER": 0.11
  },
  {
    "ENTRY SMILES": "CCO[C@@H]1C[C@H]2C(=O)NC3(CCC3)C(=O)N(C)[C@@H](C3CCCC3)C(=O)N(C)[C@H](C(=O)N3CCOCC3)CC(=O)N(C)[C@@H](Cc3ccc(C#N)cc3)C(=O)N[C@@H]([C@@H](C)CC)C(=O)N(C)CC(=O)N(C)[C@H]3CCCCCN(C3=O)[C@@H](Cc3ccc(F)cc3)C(=O)N(C)CC(=O)N[C@@H](CCc3cc(F)c(C(F)(F)F)c(F)c3)C(=O)N2C1",
    "RESULT NUMBER": 0.12
  }
]
